Assay target: T1, human mature TGFβ2 (PeproTech) (Homo sapiens, UniProt P61812)
T1 construct: Transforming Growth Factor-beta 2, human, mature form (cut from the precursor); also called TGFb2; source: bought: PeproTech
T1 sequence (P61812 303-414): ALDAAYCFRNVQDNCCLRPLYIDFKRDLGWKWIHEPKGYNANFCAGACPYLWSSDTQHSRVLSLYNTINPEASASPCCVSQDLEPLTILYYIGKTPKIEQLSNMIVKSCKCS
Assay info: SPR; Biacore T200; antibody captured on a Protein A sensor chip (about 90 RU); mature TGFβ isoform injected, five-fold dilutions 0.008 nM to 5 nM; HBS-EP pH 7.4, 150 mM NaCl; 37 °C; 100 μl/min; 3 min association, 60 min dissociation; one-to-one Langmuir model, global fit
Measurement conditions: both partners purified
Entries and their Kd
Endpoint label: Kd (pM)

• h4A11.v2.4 (antibody, V domains shown, as the VH of m7 (h4A11.v2) with the stated changes; numbers count on: Kabat numbering of the heavy chain; as the VL of m7 (h4A11.v2); human IgG1; also called v2.4_ R19S, Y79S; source: Expi293F, transient, purified (Protein A, SEC)) VH: EQQLVESGGGLVQPGGSLSLSCAVSGFSLSSYTVNWVRQAPGKGLEWIGYISYGGSAYYASWANGRFTISKDSAKNSVSLQMNSLRAEDTAVYFCARHMQVGGAPTGSMAAFDPWGPGTLVTVSS VL: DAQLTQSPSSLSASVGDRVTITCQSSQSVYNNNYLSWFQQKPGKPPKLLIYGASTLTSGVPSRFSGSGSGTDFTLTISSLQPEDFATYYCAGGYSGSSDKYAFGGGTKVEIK = 1.4
• h4A11.v2.6 (antibody, V domains shown, as the VH of m7 (h4A11.v2) with the stated changes; numbers count on: Kabat numbering of the heavy chain; as the VL of m7 (h4A11.v2); human IgG1; also called v2.6_ R19S, Y79S, Q81S; source: Expi293F, transient, purified (Protein A, SEC)) VH: EQQLVESGGGLVQPGGSLSLSCAVSGFSLSSYTVNWVRQAPGKGLEWIGYISYGGSAYYASWANGRFTISKDSAKNSVSLSMNSLRAEDTAVYFCARHMQVGGAPTGSMAAFDPWGPGTLVTVSS VL: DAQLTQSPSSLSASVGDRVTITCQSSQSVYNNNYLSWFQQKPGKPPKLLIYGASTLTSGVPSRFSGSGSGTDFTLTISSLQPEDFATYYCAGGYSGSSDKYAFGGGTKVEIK = 1.9
• h4A11.v7.3 (antibody, V domains shown, as the VH of m12 (h4A11.v7); numbers count on: Kabat numbering of the heavy chain; as the VL of m12 (h4A11.v7); human IgG1; also called v7.3_S19R, S79Y, K81Q; source: Expi293F, transient, purified (Protein A, SEC)) VH: EQQLQESGPGLVKPSETLRLTCTVTGFSLSSYTVNWVRQPAGKGLEWIGYISYGGSAYYASWANGRFTISKDSSKNQVYLQLSSVTAADTAVYFCARHMQVGGAPTGSMAAFDPWGPGTLVTVSS VL: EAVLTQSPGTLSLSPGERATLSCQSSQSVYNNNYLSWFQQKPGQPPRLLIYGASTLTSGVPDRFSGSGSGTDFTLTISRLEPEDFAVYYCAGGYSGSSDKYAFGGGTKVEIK = 5.7
